# subjectOfTest: human α7 nAChR (Homo sapiens, UniProt P36544)
# Construct: expressed in transfected cells; host or cells: GH4C1 (rat pituitary cell line)
# Sequence (P36544 23-502): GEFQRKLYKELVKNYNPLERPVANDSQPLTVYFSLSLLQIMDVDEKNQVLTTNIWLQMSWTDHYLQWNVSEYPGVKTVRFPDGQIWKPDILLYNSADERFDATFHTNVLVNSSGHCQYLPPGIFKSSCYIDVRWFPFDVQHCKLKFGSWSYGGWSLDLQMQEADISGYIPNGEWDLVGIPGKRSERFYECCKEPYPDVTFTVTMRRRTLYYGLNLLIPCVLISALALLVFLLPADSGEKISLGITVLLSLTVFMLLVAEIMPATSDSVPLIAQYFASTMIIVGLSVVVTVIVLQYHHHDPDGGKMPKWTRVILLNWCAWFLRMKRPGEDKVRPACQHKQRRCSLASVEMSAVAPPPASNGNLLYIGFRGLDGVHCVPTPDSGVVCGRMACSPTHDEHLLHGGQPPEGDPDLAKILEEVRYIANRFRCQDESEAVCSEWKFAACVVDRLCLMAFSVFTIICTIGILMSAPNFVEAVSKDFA
# assayText: cell-based calcium flux assay (FLIPR) for PAM activity at the α7 nAChR
# testConditions: Table 1; potentiation of nicotine-evoked calcium flux, GH4C1 cells stably transfected with human α7 nAChR; read-out: a7 new sm > PXC50 MEAN
# Procedure: The PAM activity of the compounds of the invention at the α7 nAChR may be determined using the following cell-based calcium flux assay which uses a Fluorimetric Image Plate Reader (FLIPR) (see Schroeder et al.; J. Biomolecular Screening, 1(2), p 75-80, 1996). GH4C1 cell line stably transfected with human α7 nAChR was suspended in a 384 well plate and incubated at 30° C. for 48 h in a 5% carbon dioxide atmosphere. […]
Structures can show the parent of a compound that is named as a salt.
valueType: EC50

> print(dat)
                                   compound  resultvalue
1  Cc1occc1-c1nc(N2CCCC(C)C2)ncc1-c1ccccn1 (stereo not shown) [Example 8, hydrochloride]    ≤ 3.16 µM
2  Cc1cnccc1-c1cnc(N2C[C@@H](C)O[C@@H](C)C2)nc1-c1ccoc1C [Example 15, hydrochloride]    ≤ 3.16 µM
3  Cc1occc1-c1nc(N2CCCC(C)C2)ncc1-c1ccncc1 (stereo not shown) [Example 1, hydrochloride]       ≤ 1 µM
4  Cc1cc(-c2cnc(N3C[C@@H](C)O[C@@H](C)C3)nc2-c2cnc(F)cc2C)ccn1 [Example 17, hydrochloride]    ≤ 3.16 µM
5  Cc1cc(-c2cnc(N3C[C@@H](C)O[C@@H](C)C3)nc2CC(C)C)ccn1 [Example 9, hydrochloride]       ≤ 1 µM
6  Cc1cc(-c2ccc(N3C[C@@H](C)O[C@@H](C)C3)nc2-c2ccoc2C)ccn1 [Example 12, hydrochloride]    ≤ 3.16 µM
7  Cc1cc(-c2cnc(N3CCCCC3)nc2-c2ccoc2C)ccn1 [Example 4, hydrochloride]       ≤ 1 µM

* * *

# subjectOfTest: human α7 nAChR (Homo sapiens, UniProt P36544)
# Construct: expressed in transfected cells; host or cells: GH4C1 (rat pituitary cell line)
# assayText: cell-based calcium flux assay (FLIPR) for PAM activity at the α7 nAChR
# testConditions: Table 1; potentiation of nicotine-evoked calcium flux, GH4C1 cells stably transfected with human α7 nAChR; read-out: a7 new sm > PXC50 MEAN
# Procedure: The PAM activity of the compounds of the invention at the α7 nAChR may be determined using the following cell-based calcium flux assay which uses a Fluorimetric Image Plate Reader (FLIPR) (see Schroeder et al.; J. Biomolecular Screening, 1(2), p 75-80, 1996). GH4C1 cell line stably transfected with human α7 nAChR was suspended in a 384 well plate and incubated at 30° C. for 48 h in a 5% carbon dioxide atmosphere. […]
pEC50: −log10 of the molar value. Counter-ions that a name gives are not always drawn.
valueType: pEC50

> print(dat)
                                   compound  resultvalue
1  Cc1cc(-c2cnc(N3CCCC(C)C3)nc2-c2ccoc2C)ccn1 (stereo not shown) [Example 3, hydrochloride]       ≥ 6.00
2  Cc1cc(-c2ccc(N3C[C@@H](C)O[C@@H](C)C3)cc2-c2ccoc2C)ccn1       ≥ 6.00
3  Cc1cc(-c2cnc(N3C[C@@H](C)O[C@@H](C)C3)nc2-c2ccccc2C)ccn1       ≥ 5.50
4  Cc1cc(-c2cnc(N3C[C@@H](C)O[C@@H](C)C3)cc2-c2ccoc2C)ccn1 [Example 11, hydrochloride]       ≥ 5.50

* * *

Listed here: items and their measured EC50.
# subjectOfTest: human α7 nAChR (Homo sapiens)
# Construct: expressed in transfected cells; host or cells: GH4C1 (rat pituitary cell line)
# assayText: cell-based calcium flux assay (FLIPR) for PAM activity at the α7 nAChR
# testConditions: Table 1; potentiation of nicotine-evoked calcium flux, GH4C1 cells stably transfected with human α7 nAChR; read-out: a7 new sm > PXC50 MEAN
Where a name gives a salt, the structure may show the parent alone.
valueType: EC50

> print(dat)
                                   molecule  resultvalue
1  Cc1cc(-c2ncc(N3C[C@@H](C)O[C@@H](C)C3)nc2-c2ccoc2C)ccn1 [Example 10, hydrochloride]    ≤ 3160 nM
2  Cc1cc(-c2cnc(N3C[C@@H](C)O[C@@H](C)C3)nc2-c2ccoc2C)ccn1 [Example 5, hydrochloride]    ≤ 1000 nM
3  Cc1occc1-c1nc(N2CCCCCC2)ncc1-c1ccccn1 [Example 7, hydrochloride]   ≤ 10000 nM
4  Cc1cc(-c2cnc(N3C[C@H](C)O[C@@H](C)C3)nc2-c2ccoc2C)ccn1 (relative stereo) [Example 6, hydrochloride]    ≤ 1000 nM

* * *

Listed here: items and their measured pEC50.
# subjectOfTest: human α7 nAChR (Homo sapiens, UniProt P36544)
# Construct: expressed in transfected cells; host or cells: GH4C1 (rat pituitary cell line)
# assayText: cell-based calcium flux assay (FLIPR) for PAM activity at the α7 nAChR
# testConditions: Table 1; potentiation of nicotine-evoked calcium flux, GH4C1 cells stably transfected with human α7 nAChR; read-out: a7 new sm > PXC50 MEAN
pEC50: −log10 of the molar value. Where a name gives a salt, the structure may show the parent alone.
valueType: pEC50

> print(dat)
                                   molecule  valuetype  resultvalue
1  Cc1cc(-c2cnc(N3C[C@@H](C)O[C@@H](C)C3)nc2-c2cc(F)ccc2C#N)ccn1 [Example 18, hydrochloride]      pEC50       ≥ 5.00
2  Cc1cc(-c2cnc(N3C[C@@H](C)O[C@@H](C)C3)nc2-c2cccnc2C(F)(F)F)ccn1 [Example 16, hydrochloride]      pEC50       ≥ 5.00
3  Cc1cc(-c2cnc(N3C[C@@H](C)O[C@@H](C)C3)nc2-c2cccc(C(F)(F)F)c2C#N)ccn1 [Example 19, hydrochloride]      pEC50       ≥ 6.00
4  Cc1occc1-c1nc(N2CCCC(C)C2)ncc1-c1cccnc1 (stereo not shown) [Example 2, hydrochloride]      pEC50       ≥ 5.00

* * *

Listed here: items and their measured pEC50.
# subjectOfTest: human α7 nAChR (Homo sapiens, UniProt P36544)
# Construct: expressed in transfected cells; host or cells: GH4C1 (rat pituitary cell line)
# assayText: cell-based calcium flux assay (FLIPR) for PAM activity at the α7 nAChR
# testConditions: Table 2, commercially available compounds; potentiation of nicotine-evoked calcium flux, GH4C1 cells stably transfected with human α7 nAChR; read-out: a7 new sm > PXC50 MEAN
pEC50: −log10 of the molar value.
valueType: pEC50

> print(dat)
                                    compound                             subjectoftest  resultvalue
 1     Cc1occc1-c1nc(N2CCCCCC2)ncc1-c1ccncc1  human α7 nAChR (Homo sapiens, UniProt P36544)       ≥ 5.50
 2       Cc1occc1-c1nc(N2CCCC2)ncc1-c1ccncc1  human α7 nAChR (Homo sapiens, UniProt P36544)       ≥ 5.50
 3      Cc1occc1-c1nc(N2CCSCC2)ncc1-c1ccncc1  human α7 nAChR (Homo sapiens, UniProt P36544)       ≥ 5.50
 4  Cc1occc1-c1nc(N2CCCC(C)C2)ncc1-c1ccncc1 (stereo not drawn)  human α7 nAChR (Homo sapiens, UniProt P36544)       ≥ 6.00
 5   Cc1noc(C)c1-c1nc(N2CCSCC2)ncc1-c1ccncc1  human α7 nAChR (Homo sapiens, UniProt P36544)       ≥ 5.00
 6   Cc1ccc(-c2nc(N3CCCCC3)ncc2-c2ccncc2)cn1  human α7 nAChR (Homo sapiens, UniProt P36544)       ≥ 5.50
 7     c1cc(-c2cnc(N3CCCCC3)nc2-c2ccoc2)ccn1  human α7 nAChR (Homo sapiens, UniProt P36544)       ≥ 5.00
 8     c1cc(-c2cnc(N3CCSCC3)nc2-c2ccoc2)ccn1  human α7 nAChR (Homo sapiens, UniProt P36544)       ≥ 6.00
 9  COc1cc(-c2cnc(N3CCCC3)nc2-c2ccco2)nc(OC)n1  human α7 nAChR (Homo sapiens, UniProt P36544)       ≥ 5.00
10  Cc1occc1-c1nc(N2CCN(C(=O)c3ccco3)CC2)ncc1-c1ccccn1  human α7 nAChR (Homo sapiens, UniProt P36544)       ≥ 5.00
11  Cc1ccc(-c2nc(N3CCCCC3)ncc2-c2cc(C)no2)cn1  human α7 nAChR (Homo sapiens, UniProt P36544)       ≥ 6.00
12  Cc1occc1-c1nc(N2CC(C)OC(C)C2)ncc1-c1ccncc1 (stereo not drawn)  human α7 nAChR (Homo sapiens, UniProt P36544)       ≥ 6.00
13  Cc1ccc(-c2nc(N3CCCC3)ncc2-c2cc(C)no2)cn1  human α7 nAChR (Homo sapiens, UniProt P36544)       ≥ 5.00
14  COc1cc(-c2cnc(N3CCCCC3)nc2-c2ccco2)nc(OC)n1  human α7 nAChR (Homo sapiens, UniProt P36544)       ≥ 5.00
15  Cc1noc(C)c1-c1nc(N2CCCCCC2)ncc1-c1ccncc1  human α7 nAChR (Homo sapiens, UniProt P36544)       ≥ 5.50
16  Cc1ccc(-c2nc(N3CCCC(C)C3)ncc2-c2cc(C)no2)cn1 (stereo not drawn)  human α7 nAChR (Homo sapiens, UniProt P36544)       ≥ 6.00
17      Cc1occc1-c1nc(N2CCCCC2)ncc1-c1ccncc1  human α7 nAChR (Homo sapiens, UniProt P36544)       ≥ 6.00
18  Cc1ccc(-c2nc(N3CCCC(C)C3)ncc2-c2ccncc2)cn1 (stereo not drawn)  human α7 nAChR (Homo sapiens, UniProt P36544)       ≥ 6.00
19     c1ccc(-c2nnc(N3CCCC3)nc2-c2ccccc2)cc1  human α7 nAChR (Homo sapiens, UniProt P36544)       ≥ 6.00
20  Cc1cc(-c2cnc(N3CCSCC3)nc2-c2ccc(C)o2)on1  human α7 nAChR (Homo sapiens, UniProt P36544)       ≥ 5.50
21      c1coc(-c2cnc(N3CCSCC3)nc2-c2ccco2)c1  human α7 nAChR (Homo sapiens, UniProt P36544)       ≥ 5.50
22  CC1CCCN(c2ncc(-c3ccncc3)c(-c3ccco3)n2)C1 (stereo not drawn)  human α7 nAChR (Homo sapiens, UniProt P36544)       ≥ 5.00
23  Cc1noc(C)c1-c1nc(N2CCCC(C)C2)ncc1-c1ccncc1 (stereo not drawn)  human α7 nAChR (Homo sapiens, UniProt P36544)       ≥ 5.50
24  Cc1cc(-c2cnc(N3CCSCC3)nc2-c2ccc(C)s2)on1  human α7 nAChR (Homo sapiens, UniProt P36544)       ≥ 5.50

The measured values listed here are drawn from patent US9133178B2.
